The next entries give measured log10 IC50 for UniProtKB O43353.
Sequence (O43353 whole entry): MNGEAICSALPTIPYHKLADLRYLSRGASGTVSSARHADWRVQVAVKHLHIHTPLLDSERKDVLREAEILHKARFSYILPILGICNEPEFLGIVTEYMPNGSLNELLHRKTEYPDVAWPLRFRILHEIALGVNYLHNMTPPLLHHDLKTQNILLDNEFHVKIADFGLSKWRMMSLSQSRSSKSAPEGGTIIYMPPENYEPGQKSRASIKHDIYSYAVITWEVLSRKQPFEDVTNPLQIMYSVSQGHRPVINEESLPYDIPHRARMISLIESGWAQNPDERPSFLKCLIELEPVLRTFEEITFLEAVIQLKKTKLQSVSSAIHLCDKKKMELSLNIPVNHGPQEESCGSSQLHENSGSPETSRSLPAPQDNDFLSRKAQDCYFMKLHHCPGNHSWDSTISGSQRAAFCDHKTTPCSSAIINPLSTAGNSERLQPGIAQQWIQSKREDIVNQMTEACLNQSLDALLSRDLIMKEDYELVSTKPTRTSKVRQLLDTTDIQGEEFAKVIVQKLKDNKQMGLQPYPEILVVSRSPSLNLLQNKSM
Note the log scale: values are log10 of IC50 expressed in nM.

Below, 5 molecules whose answers are already recorded.
molecule="Cc1ccc(C(=O)NC2CC2)cc1-c1cnn(-c2cncc(NC3CCN(CC4COCCO4)CC3)c2)c1 (stereo not drawn)" measure="log10 IC50" data_value=-0.02
molecule="Cc1ccc(C(=O)NC2CC2)cc1-c1cnn(-c2cncc(C(C)N3CCCC3=O)c2)c1 (stereo not drawn)" measure="log10 IC50" data_value=1.58
molecule=CC(=O)N1CC(Oc2cncc(-n3cc(-c4cc(C(=O)NC5CC5)ccc4C)cn3)c2)C1 measure="log10 IC50" data_value=1.11
molecule=Cc1cc(F)c(C(=O)NC2CC2)cc1-c1cnn(-c2cncc(NC3CCN(C4COC4)CC3)c2)c1 measure="log10 IC50" data_value=0.04
molecule=Cc1ccc(C(=O)NC2CC2)cc1-c1cnn(-c2cncc(NC(=O)CF)c2)c1 measure="log10 IC50" data_value=0.86

Please look up its log10 IC50: `Cc1ccc(C(=O)NC2CC2)cc1-c1cnn(-c2cncc(OC[C@H]3CCCO3)c2)c1`
0.85

Please look up its log10 IC50: `Cc1ccc(C(=O)NC2CC2)cc1-c1cnn(-c2cncc(NC(=O)NC(C)C)c2)c1`
0.53

Please look up its log10 IC50: `Cc1ccc(C(=O)NC2CC2)cc1-c1cnn(-c2cncc(NC3CCN(C)CC3)c2)c1`
-0.21

Please look up its log10 IC50: `Cc1ccc(C(=O)NC2CC2)cc1-c1cnn(-c2cccnc2)c1`
1.58

Please look up its log10 IC50: `COc1cncc(-n2cc(-c3cc(C(=O)NC4CC4)ccc3C)cn2)c1`
1.18

Please look up its log10 IC50: `CO[C@@H]1CN(C)CC[C@@H]1Nc1cncc(-n2cc(-c3cc(C(=O)NC4CC4)c(F)cc3Cl)cn2)c1`
0.26

Please look up its log10 IC50: Cc1ccc(C(=O)NC2CC2)cc1-c1cnn(-c2cncc(NCC3COCCO3)c2)c1 (stereo not drawn)
0.65
